Vascular endothelial growth factor receptor 2 (Homo sapiens) IC50 data
Sequence (P35968 whole entry): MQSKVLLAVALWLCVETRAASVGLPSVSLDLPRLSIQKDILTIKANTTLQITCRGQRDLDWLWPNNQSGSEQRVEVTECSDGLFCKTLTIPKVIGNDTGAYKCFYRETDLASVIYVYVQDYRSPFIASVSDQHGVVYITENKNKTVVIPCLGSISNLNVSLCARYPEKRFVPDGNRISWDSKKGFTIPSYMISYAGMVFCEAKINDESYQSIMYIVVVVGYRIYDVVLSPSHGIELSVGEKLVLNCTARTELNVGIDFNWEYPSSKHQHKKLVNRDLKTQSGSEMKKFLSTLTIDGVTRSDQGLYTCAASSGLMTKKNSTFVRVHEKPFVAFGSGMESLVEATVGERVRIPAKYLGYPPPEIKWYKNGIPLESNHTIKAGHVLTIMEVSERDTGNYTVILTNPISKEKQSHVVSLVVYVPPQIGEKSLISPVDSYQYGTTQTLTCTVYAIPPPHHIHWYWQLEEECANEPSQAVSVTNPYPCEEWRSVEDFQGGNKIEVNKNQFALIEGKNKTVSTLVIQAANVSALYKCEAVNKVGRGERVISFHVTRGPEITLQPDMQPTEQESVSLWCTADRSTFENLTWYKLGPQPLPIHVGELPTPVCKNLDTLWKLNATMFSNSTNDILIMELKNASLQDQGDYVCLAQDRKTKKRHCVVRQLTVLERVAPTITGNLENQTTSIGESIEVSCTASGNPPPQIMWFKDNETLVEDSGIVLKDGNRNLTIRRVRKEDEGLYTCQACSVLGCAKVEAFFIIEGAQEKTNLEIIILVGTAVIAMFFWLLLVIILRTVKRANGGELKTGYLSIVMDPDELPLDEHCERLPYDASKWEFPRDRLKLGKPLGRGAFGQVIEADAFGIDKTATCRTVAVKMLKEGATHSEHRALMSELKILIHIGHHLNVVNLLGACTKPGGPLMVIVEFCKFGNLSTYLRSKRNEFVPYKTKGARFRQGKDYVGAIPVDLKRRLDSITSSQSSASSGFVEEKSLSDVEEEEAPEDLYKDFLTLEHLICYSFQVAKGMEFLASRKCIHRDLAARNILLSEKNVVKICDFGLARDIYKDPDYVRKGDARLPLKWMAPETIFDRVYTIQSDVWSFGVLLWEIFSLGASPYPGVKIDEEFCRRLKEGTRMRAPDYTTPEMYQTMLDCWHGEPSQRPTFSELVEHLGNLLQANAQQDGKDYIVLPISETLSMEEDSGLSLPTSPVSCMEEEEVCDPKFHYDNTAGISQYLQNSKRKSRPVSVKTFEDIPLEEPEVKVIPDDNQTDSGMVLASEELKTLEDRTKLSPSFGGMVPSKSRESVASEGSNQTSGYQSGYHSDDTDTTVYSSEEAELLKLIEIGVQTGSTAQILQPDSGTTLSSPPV

Consider the following illustrative entries.
Request: Data request, read-out IC50, for Nc1nc(Nc2ccc(F)c(Br)c2)c2cc(CCc3ccccc3)[nH]c2n1
Response: 198 µM

Request: For Nc1nc(Nc2cccc(C(F)(F)F)c2)c2cc(CCc3ccccc3)[nH]c2n1 , what is its reported IC50?
Response: > 200 µM

Request: For Nc1nc(Nc2ccc(F)c(C(F)(F)F)c2)c2cc(CCc3ccccc3)[nH]c2n1 , what is its reported IC50?
Response: > 200 µM

Request: Given the compound Nc1nc(Nc2ccc(Cl)cc2F)c2cc(CCc3ccccc3)[nH]c2n1 , what is its reported IC50?
Response: > 200 µM

Request: For C#Cc1cccc(Nc2nc(N)nc3[nH]c(CCc4ccccc4)cc23)c1 , what is its reported IC50?
Response: > 200 µM

Please look at the following compound next.
Request: What value of IC50 has been reported for the following compound? Nc1nc(Nc2cccc(Br)c2)c2cc(CCc3ccccc3)[nH]c2n1
Response: > 50 µM

====

Known IC50 of a selection of compounds
testedOn: Platelet-derived growth factor receptor beta (Homo sapiens, UniProt P09619)
Sequence (P09619 whole entry): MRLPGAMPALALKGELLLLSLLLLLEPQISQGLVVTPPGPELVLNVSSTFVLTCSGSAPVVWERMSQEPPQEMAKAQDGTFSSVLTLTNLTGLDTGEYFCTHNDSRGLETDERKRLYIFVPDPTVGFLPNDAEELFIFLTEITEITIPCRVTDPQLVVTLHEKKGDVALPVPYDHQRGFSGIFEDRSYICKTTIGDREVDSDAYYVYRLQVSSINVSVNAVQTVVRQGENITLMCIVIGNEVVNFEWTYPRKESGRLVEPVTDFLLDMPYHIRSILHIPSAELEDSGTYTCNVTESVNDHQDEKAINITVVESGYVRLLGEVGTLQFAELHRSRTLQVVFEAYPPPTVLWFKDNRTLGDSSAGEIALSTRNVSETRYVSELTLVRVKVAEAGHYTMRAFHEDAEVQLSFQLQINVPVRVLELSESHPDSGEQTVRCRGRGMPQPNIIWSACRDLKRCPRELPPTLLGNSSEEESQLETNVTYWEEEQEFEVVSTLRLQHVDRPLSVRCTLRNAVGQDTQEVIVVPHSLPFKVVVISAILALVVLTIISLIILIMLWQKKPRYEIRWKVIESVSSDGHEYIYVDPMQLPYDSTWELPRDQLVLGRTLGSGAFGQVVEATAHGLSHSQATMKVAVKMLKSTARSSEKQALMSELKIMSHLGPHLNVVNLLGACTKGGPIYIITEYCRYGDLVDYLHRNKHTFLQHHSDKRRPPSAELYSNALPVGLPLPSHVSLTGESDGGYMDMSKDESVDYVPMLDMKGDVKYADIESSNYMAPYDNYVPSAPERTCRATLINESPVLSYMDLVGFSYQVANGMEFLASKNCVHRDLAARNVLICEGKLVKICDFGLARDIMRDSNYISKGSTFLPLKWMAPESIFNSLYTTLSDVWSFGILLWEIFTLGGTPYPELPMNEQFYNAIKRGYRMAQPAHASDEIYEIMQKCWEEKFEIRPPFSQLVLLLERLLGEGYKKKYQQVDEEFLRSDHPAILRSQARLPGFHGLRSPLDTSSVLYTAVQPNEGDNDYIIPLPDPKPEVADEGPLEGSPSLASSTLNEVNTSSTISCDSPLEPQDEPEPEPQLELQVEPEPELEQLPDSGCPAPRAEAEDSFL

Request: # query: IC50 of entry Nc1nc(Nc2cccc(Br)c2)c2cc(Cc3ccc4ccccc4c3)[nH]c2n1
Response: > 50 µM

Request: Fill in the blank: the reported IC50 of Nc1nc(Nc2ccc(F)c(Br)c2)c2cc(CCc3ccccc3)[nH]c2n1 is ____.
Response: > 500 µM

Request: Look at this compound and give its reported IC50. Nc1nc(Nc2ccc(Cl)cc2F)c2cc(CCc3ccccc3)[nH]c2n1
Response: > 500 µM

Request: I'd like to know its IC50. The compound in question is Nc1nc(Nc2cccc(C(F)(F)F)c2)c2cc(CCc3ccccc3)[nH]c2n1
Response: > 500 µM

Request: I would be grateful if you could share the reported IC50 for Nc1nc(Nc2cccc(Br)c2)c2cc(Cc3ccccc3Cl)[nH]c2n1 .
Response: > 50 µM

Request: Look up IC50 for this compound: Nc1nc(Nc2cccc(Br)c2)c2cc(CCc3ccccc3Cl)[nH]c2n1
Response: > 50 µM

Request: IC50 for Nc1nc(Nc2cccc(Br)c2)c2cc(Cc3ccccc3)[nH]c2n1 ?
Response: > 50 µM

Request: Entry Nc1nc(Nc2cccc(Br)c2)c2cc(CCc3ccccc3)[nH]c2n1 : reported IC50 = ?
Response: 11.8 µM

Request: Looking for the measured IC50 of Nc1nc(Nc2ccc(F)c(Cl)c2)c2cc(CCc3ccccc3)[nH]c2n1 , can you help?
Response: > 500 µM

Request: Using the record for Nc1nc(Nc2cccc(Br)c2)c2cc(CCc3ccc4ccccc4c3)[nH]c2n1 , report its IC50.
Response: 13.7 µM

Request: Sample C#Cc1cccc(Nc2nc(N)nc3[nH]c(CCc4ccccc4)cc23)c1 — what was its IC50?
Response: 100 µM

====

Target or system Vascular endothelial growth factor receptor 1 (Homo sapiens, UniProt P17948); recorded quantity pIC50.
Scale: pIC50 equals -log10([C]), with [C] in mol/L.

Request: Sample Nc1nc(Nc2cccc(Br)c2)c2cc(CCc3ccccc3Cl)[nH]c2n1 — what was its pIC50?
Response: 4.49

Here is the next item to consider.
Request: Sample Nc1nc(Nc2cccc(Br)c2)c2cc(CCc3ccccc3)[nH]c2n1 — what was its pIC50?
Response: 4.35

====

testedOn: Epidermal growth factor receptor (Homo sapiens)
Sequence (P00533 whole entry): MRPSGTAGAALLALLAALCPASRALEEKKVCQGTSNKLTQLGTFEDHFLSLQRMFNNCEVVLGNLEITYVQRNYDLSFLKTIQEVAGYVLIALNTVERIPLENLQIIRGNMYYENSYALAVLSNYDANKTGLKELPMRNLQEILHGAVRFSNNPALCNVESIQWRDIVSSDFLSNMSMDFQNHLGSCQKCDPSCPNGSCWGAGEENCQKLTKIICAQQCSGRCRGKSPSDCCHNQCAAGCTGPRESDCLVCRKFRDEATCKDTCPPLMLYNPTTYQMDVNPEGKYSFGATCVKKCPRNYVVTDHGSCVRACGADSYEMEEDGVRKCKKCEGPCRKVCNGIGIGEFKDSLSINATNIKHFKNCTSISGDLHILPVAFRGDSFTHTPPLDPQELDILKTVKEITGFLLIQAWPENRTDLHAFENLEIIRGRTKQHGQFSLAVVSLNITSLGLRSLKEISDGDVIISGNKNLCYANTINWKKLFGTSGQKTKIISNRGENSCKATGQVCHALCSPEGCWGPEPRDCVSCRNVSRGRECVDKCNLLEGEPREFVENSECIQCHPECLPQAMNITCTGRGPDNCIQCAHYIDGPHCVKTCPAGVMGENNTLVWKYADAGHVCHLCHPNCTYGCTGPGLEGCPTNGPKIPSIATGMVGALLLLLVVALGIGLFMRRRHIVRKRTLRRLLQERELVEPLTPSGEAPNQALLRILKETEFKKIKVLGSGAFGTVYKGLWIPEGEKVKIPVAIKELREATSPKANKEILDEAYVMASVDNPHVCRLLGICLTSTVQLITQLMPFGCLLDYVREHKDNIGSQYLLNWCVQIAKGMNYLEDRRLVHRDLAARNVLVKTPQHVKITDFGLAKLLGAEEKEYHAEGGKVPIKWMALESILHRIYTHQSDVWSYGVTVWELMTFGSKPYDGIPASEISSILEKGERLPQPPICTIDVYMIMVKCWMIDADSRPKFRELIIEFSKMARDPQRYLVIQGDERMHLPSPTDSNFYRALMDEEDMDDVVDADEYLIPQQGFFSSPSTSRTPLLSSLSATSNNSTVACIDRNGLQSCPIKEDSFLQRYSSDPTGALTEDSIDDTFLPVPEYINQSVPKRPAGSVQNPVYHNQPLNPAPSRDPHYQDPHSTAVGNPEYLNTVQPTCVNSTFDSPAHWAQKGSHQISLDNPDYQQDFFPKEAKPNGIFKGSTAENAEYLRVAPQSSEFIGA
observedProperty: IC50 (µM)

A: Nc1nc(Nc2ccc(F)c(C(F)(F)F)c2)c2cc(CCc3ccccc3)[nH]c2n1
B: Nc1nc(Nc2cccc(Br)c2)c2cc(CCc3ccc4ccccc4c3)[nH]c2n1
C: COc1ccc(CCc2cc3c(Nc4cccc(Br)c4)nc(N)nc3[nH]2)cc1
Request: I'd appreciate it if you sorted the entries above by their IC50, lowest to highest. // format: requested-order list of labels
Response: C, B, A

====

A set of molecules tested on Vascular endothelial growth factor receptor 1 (Homo sapiens, UniProt P17948), with measured IC50:

Known IC50 results, listed for orientation:
Request: What does the record list as IC50 for Nc1nc(Nc2ccc(Cl)cc2)c2cc(CCc3ccccc3)[nH]c2n1 ?
Response: > 200 µM

Request: What value of IC50 has been reported for the following molecule? Nc1nc(Nc2ccc(F)c(Br)c2)c2cc(CCc3ccccc3)[nH]c2n1
Response: > 200 µM

Then this molecule:
Request: Which measured IC50 value corresponds to Nc1nc(Nc2ccc(F)c(C(F)(F)F)c2)c2cc(CCc3ccccc3)[nH]c2n1 ?
Response: > 200 µM
